Consider the following compounds; for each one, report its concentration at 4 h.
assay: Evaluation of blood-brain barrier (BBB) permeability through oral administration; format: in vivo, mice; details: mouse, in vivo; mice, oral, dose 30 mg/kg, 4 hr; read-out: Mean drug concentrations in plasma at 4 hr
Report as a plain number; the unit ng/mL is understood.

The measured concentration at 4 h associated with CCOc1ccc(-c2cc3c(cc2F)[C@H](NC(=O)O[C@@H]2CN4CCC2CC4)C(C)(C)C3)cc1F reads 874

The measured concentration at 4 h associated with CCCOc1ccc(-c2ccc3c(c2)CC(C)(C)[C@H]3NC(=O)O[C@@H]2CN3CCC2CC3)cc1F reads 578

The measured concentration at 4 h associated with CCCc1ccc(-c2cc3c(cc2F)[C@H](NC(=O)O[C@@H]2CN4CCC2CC4)C(C)(C)CC3)cc1 reads 748

The measured concentration at 4 h associated with CC(C)Oc1ccc(-c2ccc3c(c2)CC(C)(C)[C@H]3NC(=O)O[C@@H]2CN3CCC2CC3)c(Cl)c1 reads 1340

---

experiment: Evaluation of blood-brain barrier (BBB) permeability through oral administration; type: in vivo, mice; settings: mouse, in vivo; mice, oral, dose 30 mg/kg, 4 hr; read-out: Mean drug concentrations in brain tissue at 4 hr
Label Y when concentration at 4 h is at or above 4000 ng/g; otherwise label N.

Evaluate COc1ccc(-c2ccc3c(c2)CC(C)(C)[C@H]3NC(=O)O[C@@H]2CN3CCC2CC3)c(Cl)c1 [Example 43] : concentration at 4 h at minimum 4000 ng/g?
Y

Evaluate Cc1cc(OC(C)C)ccc1-c1cc2c(cc1F)[C@H](NC(=O)O[C@@H]1CN3CCC1CC3)C(C)(C)C2 [Example 96] : concentration at 4 h at minimum 4000 ng/g?
Y

Evaluate Cc1cc(-c2ccc3c(c2)CC(C)(C)[C@H]3NC(=O)O[C@@H]2CN3CCC2CC3)cc(C)c1OC(C)C [Example 10] : concentration at 4 h at minimum 4000 ng/g?
Y

Evaluate COc1c(C)cc(-c2cc3c(cc2F)[C@H](NC(=O)O[C@@H]2CN4CCC2CC4)C(C)(C)C3)cc1C [Example 63] : concentration at 4 h at minimum 4000 ng/g?
N

Evaluate CCCc1ccc(-c2cc3c(cc2F)[C@H](NC(=O)O[C@@H]2CN4CCC2CC4)C(C)(C)CC3)cc1 [Example 171] : concentration at 4 h at minimum 4000 ng/g?
N

Evaluate CCOc1ccc(-c2cc3c(cc2F)[C@H](NC(=O)O[C@@H]2CN4CCC2CC4)C(C)(C)C3)cc1F [Example 90] : concentration at 4 h at minimum 4000 ng/g?
Y

---

Consider the following compounds; for each one, report its IC50.
target: glucosylceramide synthase (GCS) (Homo sapiens (Human)); assay: Evaluation of inhibitory activities against GCS (A549 cell lysate, NBD C6-ceramide, HPLC); type: biochemical; conditions: % GCS activity, A549 cell lysate, 37° C. for 90 minutes; read-out: IC50
Sequence (Q16739 whole entry): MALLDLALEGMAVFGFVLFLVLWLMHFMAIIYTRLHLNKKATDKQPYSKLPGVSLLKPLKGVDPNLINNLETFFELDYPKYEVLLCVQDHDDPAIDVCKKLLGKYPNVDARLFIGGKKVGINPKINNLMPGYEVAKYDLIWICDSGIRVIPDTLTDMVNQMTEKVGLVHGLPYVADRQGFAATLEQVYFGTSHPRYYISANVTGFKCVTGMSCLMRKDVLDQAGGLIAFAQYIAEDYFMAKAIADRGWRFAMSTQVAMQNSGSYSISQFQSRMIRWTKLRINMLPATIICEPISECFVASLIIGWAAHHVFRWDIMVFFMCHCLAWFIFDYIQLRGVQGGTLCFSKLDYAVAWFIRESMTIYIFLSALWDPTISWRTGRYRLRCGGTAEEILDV
Entry format: amount then unit.

The measured IC50 associated with CC1(C)Cc2cc(-c3cc(F)cc(OCC(F)(F)F)c3)ccc2[C@@H]1NC(=O)O[C@@H]1CN2CCC1CC2 reads 650 pM

The measured IC50 associated with CCCOc1ccc(-c2cc3c(cc2OCC)[C@H](NC(=O)O[C@@H]2CN4CCC2CC4)C(C)(C)C3)cc1 reads 500 pM

The measured IC50 associated with CC(C)COc1cccc(-c2cc3c(cc2F)[C@H](NC(=O)O[C@@H]2CN4CCC2CC4)C(C)(C)CC3)c1 reads 620 pM

The measured IC50 associated with CCCOc1ccc(-c2ccc3c(c2)CC(C)(C)[C@H]3NC(=O)O[C@@H]2CN3CCC2CC3)cc1C reads 1890 pM

The measured IC50 associated with CCOc1ccc(-c2ccc3c(c2)CCC(C)(C)[C@H]3NC(=O)O[C@@H]2CN3CCC2CC3)cc1 reads 330 pM

The measured IC50 associated with COc1ccc(-c2ccc3c(c2)CCC(C)(C)[C@H]3NC(=O)O[C@@H]2CN3CCC2CC3)c(F)c1 reads 490 pM

The measured IC50 associated with CCCOc1ccc(-c2ccc3c(c2)CCC(C)(C)[C@H]3NC(=O)O[C@@H]2CN3CCC2CC3)cc1 reads 420 pM

The measured IC50 associated with Cc1cc(-c2ccc3c(c2)CCC(C)(C)[C@H]3NC(=O)O[C@@H]2CN3CCC2CC3)cc(C)c1OC(C)C reads 1770 pM
